Target: β-secretase(BACE) (Homo sapiens, UniProt P56817)
Construct: purchased Panvera
Sequence (P56817 46-501): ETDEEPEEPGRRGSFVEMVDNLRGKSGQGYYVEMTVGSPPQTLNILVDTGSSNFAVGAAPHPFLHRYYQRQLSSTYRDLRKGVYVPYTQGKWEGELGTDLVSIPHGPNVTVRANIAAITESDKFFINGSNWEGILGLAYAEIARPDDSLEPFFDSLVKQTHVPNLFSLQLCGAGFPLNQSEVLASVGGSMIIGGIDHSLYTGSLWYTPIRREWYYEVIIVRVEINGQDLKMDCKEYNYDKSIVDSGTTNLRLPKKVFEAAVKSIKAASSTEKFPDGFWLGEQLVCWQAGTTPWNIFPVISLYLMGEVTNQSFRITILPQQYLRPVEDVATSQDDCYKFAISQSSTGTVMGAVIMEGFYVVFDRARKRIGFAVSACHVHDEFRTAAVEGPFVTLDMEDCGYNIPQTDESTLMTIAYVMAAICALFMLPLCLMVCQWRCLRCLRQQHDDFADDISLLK
Assay: BACE % Inhibition Assay ((Aedens)-[…]-(Dabcyl K-amide) substrate)
Assay type: biochemical
Details: 1 μM test compound; % error ±10%
measure: % Inhibition

{"compound": "NC1=Nc2ccc(Oc3ccccc3)cc2CN1C(CNC(=O)C1(c2ccc(Cl)cc2)CCCC1)C1CCCCC1 (centres unmarked)", "result": "50%"}
{"compound": "CC(C)(C)C(=O)NCC(C1CCCCC1)N1Cc2cc(Oc3ccccc3)ccc2N=C1N (centres unmarked)", "result": "66%"}
{"compound": "CCCCC(CC)C(=O)NCc1cccc(CN2Cc3cc(Oc4ccccc4)ccc3N=C2N)c1 (centres unmarked)", "result": "<30%"}
{"compound": "CCCCC(CC)C(=O)NCC(c1ccccc1)N1Cc2cc(Oc3ccccc3)ccc2N=C1N (centres unmarked)", "result": "<30%"}

Give % Inhibition for NC1=Nc2ccc(Oc3ccccc3)cc2CN1Cc1cccc(CNC(=O)C(c2ccccc2)c2ccccc2)c1
<30%

Give % Inhibition for CCCC(CCC)C(=O)NCc1cccc(CN2Cc3cc(Oc4ccccc4)ccc3N=C2N)c1
<30%

Give % Inhibition for CC(C)CCC(=O)NCC(C1CCCCC1)N1Cc2cc(Oc3ccccc3)ccc2N=C1N (centres unmarked)
119%

Give % Inhibition for NC1=Nc2ccc(Oc3ccccc3)cc2CN1Cc1cccc(CNC(=O)C23CC4CC(CC(C4)C2)C3)c1
<30%
